The reported numbers originate from a melting point compilation (Tetko et al.; mined from patent text by program, amines drawn as free bases though some values may be those of a salt).

TEST_READOUT: melting point

Consider the molecule shown here: O=C1c2ccccc2C(=O)N1OC1C=CCCC1 (stereo not given) What is its recorded melting point? 87 °C

Consider the molecule shown here: Clc1cc(CCc2ccccn2)c2oc(-c3ccsc3)nc2c1 What is its recorded melting point? 126 to 127 °C

Consider the molecule shown here: CCCCc1nn(-c2cc(N)ccc2Cl)c(=O)n1Cc1ccc(-c2ccccc2S(=O)(=O)NC(C)(C)C)cc1F What is its recorded melting point? 167 to 170 °C

Consider the molecule shown here: COC(=O)c1ccc2oc(-c3ccc(OC)cc3)cc2c1 What is its recorded melting point? 157 to 159 °C

Consider the molecule shown here: O=C(NC(Cc1ccccc1)P(O)O)OCc1ccccc1 (stereo not given) What is its recorded melting point? 137 °C

Consider the molecule shown here: COc1ccc(C2=NN(C(c3ccccc3)c3ccccc3)C(=O)[C@H]3CCCC[C@@H]23)cc1OC (relative stereo) What is its recorded melting point? 133 to 135 °C

Consider the molecule shown here: CC(=O)SC(Cc1ccc(F)cc1)C(=O)O (stereo not given) What is its recorded melting point? 44 to 46 °C

Consider the molecule shown here: CCCN(CCC)c1nc2ccccc2n2cnnc12 What is its recorded melting point? 240 to 242 °C

Consider the molecule shown here: CCOC(=O)CCCOc1cccc(-c2n[nH]c3c2Cc2ccccc2-3)c1 What is its recorded melting point? 142 to 148 °C

Consider the molecule shown here: CCc1nnc2c3c(c(Cl)nn12)CCCC3 What is its recorded melting point? 93 to 94 °C

Consider the molecule shown here: NC(=O)c1ccc(Nc2nc(N)nc(Cc3c(Cl)ccc4[nH]ccc34)n2)cc1 What is its recorded melting point? 204 to 205 °C

Consider the molecule shown here: Cn1cc(-c2ccc(C(F)(F)F)cc2)c(=O)c(-c2cccc(C(F)(F)F)c2)c1 What is its recorded melting point? 110 to 113 °C

Consider the molecule shown here: CC(=O)N1CCCn2nc(-c3ccncc3)c(-c3ccc(F)cc3)c21 What is its recorded melting point? 184 to 185 °C

Consider the molecule shown here: NS(=O)(=O)c1cc2ccc(O)cc2[nH]1 What is its recorded melting point? 194 to 195 °C

Consider the molecule shown here: O=c1ccoc(C(O)c2ccc(F)cc2)c1O (stereo not given) What is its recorded melting point? 154 to 156 °C

Consider the molecule shown here: CN1CCN(C(=O)N2CCN(C(=O)OC(C)(C)C)CC2)CC1 What is its recorded melting point? 130 °C

Consider the molecule shown here: COc1ccc2ncn(C3CCN(C(C)c4ccccc4)CC3)c(=O)c2c1 (stereo not given) What is its recorded melting point? 124 °C

Consider the molecule shown here: CCCc1ccc(-c2nnc(SC)nn2)cc1 What is its recorded melting point? 78 to 79 °C

Consider the molecule shown here: O=C(O)c1ccc(C2OC2C(=O)c2ccccc2)cc1 (stereo not given) What is its recorded melting point? 170 to 172 °C

Consider the molecule shown here: CCc1nn(C2CN(C(C)C)C2)c(C(N)=O)c1N What is its recorded melting point? 150 to 156 °C

Consider the molecule shown here: CCn1c(C)nc2cc(S(=O)(=O)c3cccc4cnccc34)c([N+](=O)[O-])cc21 What is its recorded melting point? 245 to 250 °C

Consider the molecule shown here: CN1C(=O)C(C)(C)N=C(c2ccccc2F)c2cc(N3C(=O)NC(C)(C)C3=O)ccc21 What is its recorded melting point? 286 to 287 °C

Consider the molecule shown here: COc1cc(/C=C/S(=O)(=O)CS(=O)(=O)/C=C/c2ccc(O)c(OC)c2)ccc1O What is its recorded melting point? 125 to 127 °C

Consider the molecule shown here: CC(=O)Nc1ccc(OCCO[N+](=O)[O-])cc1 What is its recorded melting point? 106 to 107 °C

Consider the molecule shown here: CCOC(=O)COc1ccc(Oc2ccc([N+](=O)[O-])cc2)c(Cl)c1Cl What is its recorded melting point? 90 to 91 °C

Consider the molecule shown here: O=C(O)CCCCCOc1ccc2sc(-c3ccccn3)nc(=O)c2c1 What is its recorded melting point? 205 to 206 °C

Consider the molecule shown here: Cn1nc2c(c1-c1ccc(Cl)cc1)Cc1ccccc1-2 What is its recorded melting point? 131 to 133 °C

Consider the molecule shown here: O=[N+]([O-])c1cc(OCC2CCCSC2)c(Cl)cc1F (stereo not given) What is its recorded melting point? 100 to 103 °C

Consider the molecule shown here: CCOc1ccc2c(c1)C(C)(c1cc(C(=O)ON3C(=O)CCC3=O)ccc1Cl)C(=O)N2S(=O)(=O)c1ccc(C(=O)NC(C)(C)C)cc1 (stereo not given) What is its recorded melting point? 168 °C

Consider the molecule shown here: CN(C)C=C(C(=O)c1ccc(Cl)cc1)c1ccccc1[N+](=O)[O-] What is its recorded melting point? 142 to 148 °C

Consider the molecule shown here: C[C@@H](N(CC(=O)O)C(=O)c1ccc(OCC(F)(F)F)cc1)[C@](O)(Cn1cncn1)c1ccc(F)cc1F (relative stereo) What is its recorded melting point? 168 to 177 °C

Consider the molecule shown here: CC(=O)NCCc1ccc(C=CC(=O)O)cc1 What is its recorded melting point? 206 to 208 °C

Consider the molecule shown here: Cc1c(-c2ccccc2)c(OCc2ncnn2C)nn2c(-c3ccccc3)nnc12 What is its recorded melting point? 195 °C

Consider the molecule shown here: Cc1cc(OCC(O)CCl)c2cn[nH]c2c1 (stereo not given) What is its recorded melting point? 171 to 172 °C

Consider the molecule shown here: COc1cccc(NC(=O)Nc2ccc(N3CCN(C(=O)Nc4ccc(OCCO)cc4Cl)CC3)cc2)c1 What is its recorded melting point? 198 to 201 °C

Consider the molecule shown here: COc1cc2c(cc1Br)CCC2=O What is its recorded melting point? 149 to 151 °C

Consider the molecule shown here: CC(=O)N(C(C)=O)c1ccc(C=Cc2ccc3ccccc3n2)cc1 What is its recorded melting point? 148 to 150 °C

Consider the molecule shown here: O=C(c1ccccc1O)N1CC2CCC(C1)O2 What is its recorded melting point? 155 to 157 °C

Consider the molecule shown here: COC(=O)c1ccc(OCCNC(=O)C2Cc3ccccc3N2S(=O)(=O)c2ccc(-c3ccc(F)cc3C)cc2)cc1F (stereo not given) What is its recorded melting point? 66 to 75 °C

Consider the molecule shown here: N#CN1c2ccccc2C=Cc2ccccc21 What is its recorded melting point? 108 to 109 °C
